# System: U2OS
# experiment description: Multiplex assay against U2OS
# Type: toxicity, cell-based
# particulars: human, 48 h, 10 µM, compound concentration 10 uM, replicate 1
Recorded Population Hoechst High Intensity Objects (%) for the following compounds
result type: Population Hoechst High Intensity Objects (%)

{"compound": "Cc1ccc2c(c1)c1c(n2CCc2ccc(C)nc2)CCN(C)C1 [LATREPIRDINE]", "uom": "%", "assay value": 6}
{"compound": "O=C(c1cc2c(cc1F)OC(c1ccc(F)cc1)(c1ccc(Cl)cc1Cl)O2)N1CCOCC1 (centres undefined)", "uom": "%", "assay value": 14}
{"compound": "Cc1cccc(CN2CCN(C(c3ccccc3)c3ccc(Cl)cc3)CC2)c1.Cl.Cl (centres undefined)", "uom": "%", "assay value": 4}
{"compound": "COc1cc(Nc2nccc(-c3cnn4nc(OC)ccc34)n2)cc(C(F)(F)F)c1", "uom": "%", "assay value": 20}
{"compound": "CCc1ccc(OCc2ccccc2C(=O)Nc2ccc3nc(C)cc(N)c3c2)cc1.Cl", "uom": "%", "assay value": 11}
{"compound": "CC(C)OC(=O)N1CCC(Oc2ncnc3c2cnn3-c2ccc(S(C)(=O)=O)cc2F)CC1", "uom": "%", "assay value": 2}
{"compound": "CC(C)NC(=O)N1CC[C@H](NC2=Nc3cc(F)ccc3N(CC(F)F)c3ccc(Cl)cc32)C1", "uom": "%", "assay value": 6}
{"compound": "O=c1cc(N2CCOCC2)oc2c(-c3cccc4c3sc3ccccc34)cccc12", "uom": "%", "assay value": 13}
{"compound": "Cl.O=C(O)c1cc(-c2ccc(C3CCNCC3)cc2)c2ccc(-c3ccc(C(F)(F)F)cc3)cc2c1", "uom": "%", "assay value": 5}

---

# Tested on: HEK-293T
# experiment description: Multiplex assay against HEK293T
# Format: toxicity, cell-based
# particulars: human, 24 h, 1 µM, compound concentration 1 uM, replicate 2
result type: Population Fragmented Nuclei (%)

{"compound": "COC(=O)C1=C(C)NC(C)=C(C(=O)OCCCN2CCC(c3ccccc3)(c3ccccc3)CC2)[C@H]1c1cccc([N+](=O)[O-])c1", "target system": "HEK-293T", "assay value": "6%"}
{"compound": "COc1ccccc1CN[C@H]1C2CCN(CC2)[C@H]1C(c1ccccc1)c1ccccc1", "target system": "HEK-293T", "assay value": "2%"}
{"compound": "COc1ccc(-c2ccc3ncc4c(c3c2)n(-c2ccc(N3CCNCC3)c(C(F)(F)F)c2)c(=O)n4C)cn1.O=C(O)/C=C\\C(=O)O", "target system": "HEK-293T", "assay value": "9%"}
{"compound": "CNC(=O)Nc1ccc(-c2nc(N3CC4CCC(C3)O4)c3cnn(C4CCC5(CC4)OCCO5)c3n2)cc1", "target system": "HEK-293T", "assay value": "12%"}
{"compound": "CC(C)Oc1ccccc1C(=O)Nc1ccccc1C(=O)Nc1cccc(S(=O)(=O)C(F)(F)F)c1", "target system": "HEK-293T", "assay value": "8%"}
{"compound": "Cc1cccc(CN2CCN(C(c3ccccc3)c3ccc(Cl)cc3)CC2)c1.Cl.Cl (stereo unspecified)", "target system": "HEK-293T", "assay value": "6%"}
{"compound": "CC(C)NC(=O)N1CC[C@H](NC2=Nc3cc(F)ccc3N(CC(F)F)c3ccc(Cl)cc32)C1", "target system": "HEK-293T", "assay value": "4%"}
{"compound": "C=CC(=O)Nc1cccc(Oc2nc(Nc3ccc(N4CCN(C)CC4)cc3OC)ncc2Cl)c1", "target system": "HEK-293T", "assay value": "8%"}
{"compound": "O=C(c1cc2c(cc1F)OC(c1ccc(F)cc1)(c1ccc(Cl)cc1Cl)O2)N1CCOCC1 (stereo unspecified)", "target system": "HEK-293T", "assay value": "3%"}
{"compound": "CC(C)(C)NC[C@H](O)COc1nsnc1N1CCOCC1", "target system": "HEK-293T", "assay value": "7%"}
{"compound": "COc1cc(Nc2nccc(-c3cnn4nc(OC)ccc34)n2)cc(C(F)(F)F)c1", "target system": "HEK-293T", "assay value": "6%"}
{"compound": "C[C@]12CC[C@@H]3c4ccc(O)cc4CC[C@H]3[C@@H]1CC[C@@H]2O", "target system": "HEK-293T", "assay value": "3%"}
{"compound": "C=CC(=O)Nc1cccc(Sc2nc(Nc3ccc(N4CCN(C)CC4)cc3)ncc2Cl)c1", "target system": "HEK-293T", "assay value": "6%"}
{"compound": "CCc1ccc(OCc2ccccc2C(=O)Nc2ccc3nc(C)cc(N)c3c2)cc1.Cl", "target system": "HEK-293T", "assay value": "10%"}
{"compound": "CCc1nn(CCCN2CCN(c3cccc(Cl)c3)CC2)c(=O)n1CCOc1ccccc1.Cl [NEFAZODONE HYDROCHLORIDE]", "target system": "HEK-293T", "assay value": "4%"}
{"compound": "Cl.O=C(O)c1cc(-c2ccc(C3CCNCC3)cc2)c2ccc(-c3ccc(C(F)(F)F)cc3)cc2c1", "target system": "HEK-293T", "assay value": "8%"}
{"compound": "C[C@]1(O)C[C@@H](c2nc(-c3ccc4ccc(-c5ccccc5)nc4c3)c3c(N)nccn32)C1", "target system": "HEK-293T", "assay value": "10%"}
{"compound": "Cc1ccc2c(c1)c1c(n2CCc2ccc(C)nc2)CCN(C)C1 [LATREPIRDINE]", "target system": "HEK-293T", "assay value": "5%"}
{"compound": "Cc1nc(N2CC[C@H](O)C2)ncc1-c1cc(C(F)(F)F)cc2[nH]ncc12", "target system": "HEK-293T", "assay value": "17%"}
{"compound": "Cc1c[nH]c2nccc(Oc3c(F)cc(Nc4cc(Cl)nc(N)n4)cc3F)c12", "target system": "HEK-293T", "assay value": "13%"}
{"compound": "CNC(=O)Nc1ccc2c(c1)[C@@]1(CC2)OC(=O)N(CC(=O)N(Cc2ccc(F)cc2)[C@@H](C)C(F)(F)F)C1=O", "target system": "HEK-293T", "assay value": "14%"}
{"compound": "CN1CCN(Cc2ccc(Nc3ncc(Cl)c(Nc4ccccc4S(=O)(=O)N(C)C)n3)cc2)CC1", "target system": "HEK-293T", "assay value": "19%"}
{"compound": "CC(C)OC(=O)N1CCC(Oc2ncnc3c2cnn3-c2ccc(S(C)(=O)=O)cc2F)CC1", "target system": "HEK-293T", "assay value": "7%"}
{"compound": "CC(C)CC(=O)Nc1[nH]nc2c1CN(C(=O)C1CCN(C)CC1)C2(C)C", "target system": "HEK-293T", "assay value": "23%"}
{"compound": "CCCSc1nc(N[C@@H]2C[C@H]2c2ccc(F)c(F)c2)c2nnn([C@@H]3C[C@H](OCCO)[C@@H](O)[C@H]3O)c2n1", "target system": "HEK-293T", "assay value": "4%"}
{"compound": "CCOC(=O)Nc1cc(-c2ccc(C)c(NS(C)(=O)=O)c2)nn2c(C)nnc12", "target system": "HEK-293T", "assay value": "32%"}
{"compound": "O=c1[nH]c2ccccc2n1C1CCN(Cc2ccc(-c3[nH]c4cc5ncnc5cc4nc3-c3ccccc3)cc2)CC1", "target system": "HEK-293T", "assay value": "17%"}
{"compound": "C=CC(=O)Nc1ccc2[nH]c(=O)n(C3CCN(Cc4ccc(-c5nc6cc[nH]c(=O)c6cc5-c5ccccc5)cc4)CC3)c2c1", "target system": "HEK-293T", "assay value": "19%"}
{"compound": "O=c1cc(N2CCOCC2)oc2c(-c3cccc4c3sc3ccccc34)cccc12", "target system": "HEK-293T", "assay value": "3%"}
{"compound": "COc1cc2ncn(-c3cc(OCc4ccccc4C(F)(F)F)c(C(N)=O)s3)c2cc1OC [GW843682X]", "target system": "HEK-293T", "assay value": "5%"}
{"compound": "CC(C)c1noc(N2CCC(COc3ccc(-c4ccc(S(C)(=O)=O)cc4)nc3)CC2)n1", "target system": "HEK-293T", "assay value": "6%"}
